Below is a list of entries, each paired with its recorded selectivity ratio value.
- test_details: Selectivity index, ratio of IC50 for cytotoxicity against rat L6 cells to IC50 for antitrypanosomal activity against Trypanosoma brucei rhodesiense STIB900
- Type: toxicity, cell-based
- condition_summary: read-out: Selectivity Index

Below are worked cases with known answers.
N=C(N)c1ccc(-c2ccc(Cc3cccc(C(=N)N)c3)cc2)cc1
57.1
N=C(N)c1ccc(Cc2ccc(-c3ccc(C(=N)N)cc3)cc2)cc1
54.8
CO/N=C(\N)c1ccc(-c2ccc(Oc3ccc(/C(N)=N\OC)cc3)nc2)cc1
6.3
N=C(N)c1ccc(Oc2ccc(-c3ccc(C(=N)N)cc3)cn2)cc1
191
N=C(N)c1ccc(Cc2ccc(-c3ccc(C(=N)N)cc3)nc2)cc1
441

Which selectivity ratio value is on record for `N=C(N)c1ccc(Cc2ccc(Cc3cccc(C(=N)N)c3)cc2)cc1` ?
1890

Can you check `CO/N=C(\N)c1cccc(Cc2ccc(-c3ccc(/C(N)=N\OC)cc3)cc2)c1` next?
2.1

Next up: `CO/N=C(\N)c1cccc(Cc2ccc(Cc3ccc(/C(N)=N\OC)cc3)cc2)c1`
1.7

Repeat with `N=C(N)c1ccc(Oc2cccc(Oc3ccc(C(=N)N)cc3)n2)cc1`
263

Repeat for the following compound: `CO/N=C(\N)c1ccc(Oc2cccc(Oc3ccc(/C(N)=N\OC)cc3)n2)cc1`
4.5

Queued: `CN(C)CCCC(=O)O/N=C(\N)c1ccc(Cc2ccc(-c3ccc(/C(N)=N\OC(=O)CCCN(C)C)cc3)cc2)cc1`
10.5

Please do the same for `N=C(N)c1ccc(Cc2ccc(Cc3ccc(C(=N)N)cc3)cc2)cc1` as well.
269

Param item: `N=C(N)c1ccc(Cc2ccc(Cc3ccc(C(=N)N)cc3)o2)cc1`
930
